This collection of values is drawn from paper PMC2746433.

Target: T1, E. coli Exonuclease I (E. coli, UniProt P04995 1-475)
T1 sequence (looked up): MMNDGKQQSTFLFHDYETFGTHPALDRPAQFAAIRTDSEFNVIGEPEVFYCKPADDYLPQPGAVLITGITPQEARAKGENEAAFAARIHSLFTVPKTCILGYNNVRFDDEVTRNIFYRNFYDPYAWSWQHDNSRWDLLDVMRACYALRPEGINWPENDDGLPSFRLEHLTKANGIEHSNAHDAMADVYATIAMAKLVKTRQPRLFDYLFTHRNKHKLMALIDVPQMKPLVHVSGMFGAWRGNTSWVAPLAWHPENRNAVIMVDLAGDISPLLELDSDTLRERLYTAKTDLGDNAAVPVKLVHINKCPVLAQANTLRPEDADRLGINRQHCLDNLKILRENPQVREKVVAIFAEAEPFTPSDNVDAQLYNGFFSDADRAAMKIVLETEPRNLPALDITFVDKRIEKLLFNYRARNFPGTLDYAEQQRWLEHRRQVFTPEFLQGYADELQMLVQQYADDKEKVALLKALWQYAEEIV
Assay: fluorescence polarisation
I'd appreciate it if you could supply IC50 values for the items below.
Report only the number, with the unit µM understood.

Consider the binder shown here: WFDDDIPF [SSB-Ct N-terminal truncation peptide WFDDDIPF] What is its recorded IC50?
12.1

For WDIPF [SSB-Ct N-terminal truncation peptide WDIPF] then?
79.1

For WDDDIPF [SSB-Ct N-terminal truncation peptide WDDDIPF] then?
25.3

For WDFDDDIPF [SSB-Ct N-terminal truncation peptide WDFDDDIPF] then?
4.3

For WMDFDDDIPF [SSB-Ct peptide WMDFDDDIPF (wild type)] then?
5.2

For WDDIPF [SSB-Ct N-terminal truncation peptide WDDIPF] then?
33.5
